Where these numbers come from: patent US20040138488A1

measured quantity: melting point

1) CN(CCCN(C)Cc1cccc(O)c1O)Cc1cccc(O)c1O    130 °C (dec.)
2) Oc1cccc(CN2CCN(Cc3cccc(O)c3O)CC2)c1O    210 °C (dec.)
3) COc1cccc(CN2CCN(Cc3cccc(OC)c3O)CC2)c1O    197 to 198 °C
4) CCN(CCN(CC)Cc1cccc(OC)c1O)Cc1cccc(OC)c1O    71 to 72 °C
5) COc1cccc(CN(C)CCCN(C)Cc2cccc(OC)c2O)c1O    78 to 79 °C
6) COc1cccc(CN(C)CCN(C)Cc2cccc(OC)c2O)c1O    115 to 116 °C
